pIC50: −log10 of the molar value.
pIC50 values for ROCK2 (Homo sapiens) compiled from several publications are listed below.

Would you please look over these solved cases?
COc1cc(F)cc(CN2CCN(c3cc(F)c(-c4cn[nH]c4)cc3F)C2=O)c1	6.70 to 7.70
COc1ccc(C(=O)N2CCC3(CC2)CC(=O)N(c2ccc(-c4cn[nH]c4)c(OC)c2)C3)cc1	6.51
COc1cc(N2CC(=O)N(Cc3ccccc3F)C2=O)ccc1-c1cn[nH]c1	6.70 to 7.70

Now for another entry.
# query: pIC50 of entry COc1cccc(NC2CCN(c3ccc(-c4n[nH]c(=O)c5ccccc45)cc3)C2=O)c1 (stereo not shown)
7.00 to 8.00
